test: primary screen for suppressors of beta-catenin knockout HCT116 cell growth, colon tumor, human (AID 818); conditions: CellTiter-Glo, 60 h, at 10 µM, stronger effect = lower value;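 note: 0% = Hyamine 1622 control at 20 µM and 100% = untreated cell control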
In all, about 140,000 compounds went through this assay and about 2,100 (1.5%) were called active. The list comes from a sample in which actives are over-represented; it also holds close analogues and randomly drawn compounds.
viability by entry:

{"compound": "CC(=O)Nc1ccc(SCC(=O)Nc2ccccc2Oc2ccccc2)cc1", "units-of-measure": "%", "viability": 86.2}
{"compound": "Cc1csc(NC(=O)NC2(C(F)(F)F)Oc3ccccc3O2)n1", "units-of-measure": "%", "viability": 5.7}
{"compound": "COc1ccc(C(=O)Nc2c(Cl)cc(Cl)cc2C(=O)N2CCC(C)CC2)cc1", "units-of-measure": "%", "viability": 77.2}
{"compound": "Cc1ccc(S(=O)(=O)NCCSc2ccccc2)cc1[N+](=O)[O-]", "units-of-measure": "%", "viability": 104}
{"compound": "COc1cc(OC)cc(C(=O)N[C@H](C(=O)OCC(=O)NC(C)c2ccccc2)C(C)C)c1 (stereo partly specified)", "units-of-measure": "%", "viability": 83.7}
{"compound": "COc1ccc(Cl)cc1-n1c(C)cc(C(=O)OCC(=O)N2CC(=O)Nc3ccccc32)c1C", "units-of-measure": "%", "viability": 69.3}
{"compound": "Cc1ccn(CC(=O)N2N=C(C(F)F)CC2(O)C(F)F)n1 (stereo unspecified)", "units-of-measure": "%", "viability": 101}
{"compound": "O=C(Nc1ccc([N+](=O)[O-])cc1)C1(c2ccccc2)CCOCC1", "units-of-measure": "%", "viability": 94.8}
{"compound": "COc1ccc(C2COC(=O)C2=N)c(NC(=O)c2ccccc2)c1 (stereo unspecified)", "units-of-measure": "%", "viability": 79.1}
{"compound": "O=C(NCCN1CCN(Cc2ccccc2)CC1)c1cc2c(=O)[nH]c3ccccc3c2s1", "units-of-measure": "%", "viability": 1.35}
{"compound": "CN1CCN(CCCNC(=O)c2cc3c(=O)oc4ccccc4c3s2)CC1", "units-of-measure": "%", "viability": 92}
{"compound": "Cc1cc(/C=C2\\SC(=Nc3ccc(N4CCOCC4)cc3)N(C)C2=O)c(C)n1-c1cccnc1", "units-of-measure": "%", "viability": 54.8}
{"compound": "CCOc1cc(N2CCOCC2)c(OCC)cc1NC(=O)COC(=O)[C@H](Cc1c[nH]c2ccccc12)NC(C)=O", "units-of-measure": "%", "viability": 87.2}
{"compound": "Cc1ccc(CCCOC(=O)C[N+]2(C)CCCC2)cc1", "units-of-measure": "%", "viability": 97}
{"compound": "CCOc1cc(N2CCOCC2)c(OCC)cc1NC(=O)COc1cccc2cccnc12", "units-of-measure": "%", "viability": 4.29}
{"compound": "CCOc1ccc(C(=O)Nc2nccs2)cc1[N+](=O)[O-]", "units-of-measure": "%", "viability": 94}
{"compound": "N#C/C(=C\\C1=C(N2CCOCC2)C(=C\\c2ccccc2)/CC1)C(=O)Nc1ccccc1F", "units-of-measure": "%", "viability": 65.8}
{"compound": "Cc1cccc(OCC(=O)NC(=S)Nc2ccccc2N2CCOCC2)c1", "units-of-measure": "%", "viability": 98.4}
{"compound": "COc1ccccc1N=Cc1c(O)c2ccccc2oc1=O", "units-of-measure": "%", "viability": 84.7}
{"compound": "O=[N+]([O-])c1ccc(N/N=C2/CCCCC2c2ccccn2)c([N+](=O)[O-])c1 (stereo unspecified)", "units-of-measure": "%", "viability": 79.6}
{"compound": "NC(=O)Nc1ccccc1C(=O)NCCc1ccccc1", "units-of-measure": "%", "viability": 99.7}

----------
assay: primary screen for suppressors of beta-catenin knockout HCT116 cell growth, colon tumor, human (AID 818); conditions: CellTiter-Glo, 60 h, at 10 µM, stronger effect = lower value;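 note: 0% = Hyamine 1622 control at 20 µM and 100% = untreated cell control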
Among all 140,000 compounds or so, about 2,100 (1.5%) were called active. The sample as a whole holds a higher share of actives than the screen did.
Overview of reported viability across a group of compounds:
quantity-name: viability (%)

{"compound": "O=C(CC(O)(C(F)(F)F)C(F)(F)F)Nc1ccc(Cl)c(Cl)c1", "quantity-name": "viability", "quantitative-readout": 2.26}
{"compound": "Oc1ccc(Cl)cc1/C=N/c1nc2ccccc2[nH]1", "quantity-name": "viability", "quantitative-readout": 89.3}
{"compound": "CCOC(=O)C(NC(=O)CC(C)C)(Nc1sc2c(c1C(N)=O)CCCC2)C(F)(F)F (stereo unspecified)", "quantity-name": "viability", "quantitative-readout": 97.2}
{"compound": "COc1cccc(/C=N\\NC(=O)C2=NNC(=O)C2C)c1O (stereo unspecified)", "quantity-name": "viability", "quantitative-readout": 45.9}
{"compound": "Cc1ccc2[nH]c(=O)c(CC=C(Cl)Cl)c(C)c2c1", "quantity-name": "viability", "quantitative-readout": 88.7}
{"compound": "CCOC(=O)c1cnc(-n2nc(C)cc2C)nc1-n1nc(C)cc1C", "quantity-name": "viability", "quantitative-readout": 103}
{"compound": "CCc1cccc(C)c1NC(=O)COC(=O)Cc1ccsc1", "quantity-name": "viability", "quantitative-readout": 80.8}
{"compound": "FC(F)(F)c1cccc(NC(=S)Nc2cccc(Cl)c2)c1", "quantity-name": "viability", "quantitative-readout": 5.77}
{"compound": "c1ccc2[nH]c(NCCN3CCOCC3)nc2c1", "quantity-name": "viability", "quantitative-readout": 92}
{"compound": "CCNS(=O)(=O)c1ccc(NC(=O)c2cncc(Br)c2)cc1", "quantity-name": "viability", "quantitative-readout": 97.6}
{"compound": "O=C(CN1CCN(c2ccc(O)cc2)CC1)NC1CCCc2ccccc21 (stereo unspecified)", "quantity-name": "viability", "quantitative-readout": 74}
{"compound": "COc1ccc(C(CCNCc2ccccc2F)c2ccc(F)cc2)cc1 (stereo unspecified)", "quantity-name": "viability", "quantitative-readout": 9.17}
{"compound": "S=C(Nc1cccc(Cl)c1)Nc1ccc2cn[nH]c2c1", "quantity-name": "viability", "quantitative-readout": 77.5}
{"compound": "O=C(Nc1ccccc1F)c1ccccc1-c1ccc(C(F)(F)F)cc1", "quantity-name": "viability", "quantitative-readout": 77.4}
{"compound": "C/C(=N\\Nc1ccc([N+](=O)[O-])cc1)c1ccc(-n2nncc2C(C)(C)C)cc1", "quantity-name": "viability", "quantitative-readout": 97.1}
{"compound": "COc1ccccc1NC(=O)CCCc1c[nH]c2ccccc12", "quantity-name": "viability", "quantitative-readout": 101}
{"compound": "COC(C(=O)NCc1ccccc1C)c1ccccc1 (stereo unspecified)", "quantity-name": "viability", "quantitative-readout": 90}
{"compound": "CCOC(=O)c1cnc(-n2nc(C)cc2C)nc1NNc1cc(C)nc(-c2ccccc2)n1", "quantity-name": "viability", "quantitative-readout": 3.41}
{"compound": "COc1cccc(CNCCc2c[nH]c3ccccc23)c1OCc1ccccc1F", "quantity-name": "viability", "quantitative-readout": 0.88}
{"compound": "Cc1cc(Br)ccc1NC(=O)C1CCCO1 (stereo unspecified)", "quantity-name": "viability", "quantitative-readout": 96.2}
{"compound": "NS(=O)(=O)c1cc(C(=O)NCCOc2ccccc2)c(Cl)cc1Cl", "quantity-name": "viability", "quantitative-readout": 78.4}
{"compound": "Cc1ccc(C(CC(=O)O)Nc2nc(N3CCCCC3)nc(N3CCCCC3)n2)cc1 (stereo unspecified)", "quantity-name": "viability", "quantitative-readout": 97.6}
{"compound": "CCCn1nc(NS(=O)(=O)c2ccccc2)c2cc3cc(C)ccc3nc21", "quantity-name": "viability", "quantitative-readout": 91.5}
{"compound": "Cc1nc(-c2ccc(NC(=O)c3cccs3)cc2)cs1", "quantity-name": "viability", "quantitative-readout": 67}
{"compound": "COc1cccc2cc(C(=O)N3CCN(C(=O)c4ccccc4)CC3)c(=O)oc12", "quantity-name": "viability", "quantitative-readout": 100}
{"compound": "CSCCC(NC(=O)COc1ccccc1)C(=O)Nc1ccc(C)cc1 (stereo unspecified)", "quantity-name": "viability", "quantitative-readout": 99.2}
{"compound": "CSCC[C@H](NC(=O)OC(C)(C)C)C(=O)N/N=C/c1cc2ccc(C)cc2nc1Cl", "quantity-name": "viability", "quantitative-readout": 1.02}
{"compound": "COc1cccc(NC(=O)Cc2ccc(C)cc2)c1", "quantity-name": "viability", "quantitative-readout": 99.6}
{"compound": "Cc1ccc(C(=O)NCC2CCCO2)o1 (stereo unspecified)", "quantity-name": "viability", "quantitative-readout": 106}
{"compound": "CC(C)n1c(C(O)c2ccccc2)nc2ccccc21 (stereo unspecified)", "quantity-name": "viability", "quantitative-readout": 110}
{"compound": "CCN(CC)c1ccc(/C=N/Nc2nc(C)cc(=O)[nH]2)cc1", "quantity-name": "viability", "quantitative-readout": 76.5}
{"compound": "O=C(CC(=O)Nc1ccc(Cl)c(Cl)c1)N/N=C/c1ccc(O)cc1", "quantity-name": "viability", "quantitative-readout": 81}
{"compound": "Cc1ccc(-c2nnc(-c3ccc(NC(=O)c4cccs4)cc3)o2)cc1", "quantity-name": "viability", "quantitative-readout": 2.05}
{"compound": "O=C(Nc1cn(-c2ccccc2)nc1-c1ccccc1)c1ccccc1", "quantity-name": "viability", "quantitative-readout": 82}
{"compound": "CCc1ccc(NC(=O)C(C)OC(=O)/C=C/c2cccc([N+](=O)[O-])c2)cc1 (stereo unspecified)", "quantity-name": "viability", "quantitative-readout": 90.3}
{"compound": "c1ccc2cc3c(NCCN4CCOCC4)ccnc3cc2c1", "quantity-name": "viability", "quantitative-readout": 2.37}
{"compound": "O=C(Cn1c(-c2ccccn2)nc2ccccc21)NCCN1CCOCC1", "quantity-name": "viability", "quantitative-readout": 98.8}
{"compound": "COc1cccc2cc(C(=O)N(C)C)c(=O)oc12", "quantity-name": "viability", "quantitative-readout": 1.59}
{"compound": "Cc1ccc(NC(=O)CN(C)Cc2ccc(F)cc2)c([N+](=O)[O-])c1", "quantity-name": "viability", "quantitative-readout": 91.3}
{"compound": "Cc1csc(NC(=S)Nc2cccc(Cl)c2)n1", "quantity-name": "viability", "quantitative-readout": 26.5}
{"compound": "COc1ccc(CC(=O)Nc2ccc(C(=O)NC(C)(C)C)cc2)cc1", "quantity-name": "viability", "quantitative-readout": 84.5}
{"compound": "O=C(COC(=O)Cc1ccc(Br)cc1)Nc1c(F)c(F)c(F)c(F)c1F", "quantity-name": "viability", "quantitative-readout": 94.5}
{"compound": "CCN(CC)c1ccc(/C=N/Nc2nc(C)cc(C)n2)c(O)c1", "quantity-name": "viability", "quantitative-readout": 5.53}
{"compound": "CC(Nc1nc(N2CCCC2)nc2ccccc12)c1ccccc1 (stereo unspecified)", "quantity-name": "viability", "quantitative-readout": 1.19}
{"compound": "CCc1ccc(NC2Nc3cc(C)nn3S2)cc1 (stereo unspecified)", "quantity-name": "viability", "quantitative-readout": 95.4}
{"compound": "O=c1c2sccc2nc(SCc2cc(=O)n3ccccc3n2)n1-c1ccc(Br)cc1", "quantity-name": "viability", "quantitative-readout": 59.1}

These measurements were taken from PubChem BioAssay AID818.
